Test: Systemic availability of mexiletine in the dog from mexiletine prodrugs (oral gavage)
Format: in vivo
Description: Test substances (i.e., mexiletine, and various mexiletine amino acid prodrugs) were administered by oral gavage to groups of two or some cases five dogs. The characteristics of the test animals are set out in Table 6. Blood samples were taken at various times after administration and submitted to analysis for parent drug using a validated LC-MS-MS assay. Pharmacokinetic parameters derived from the plasma bioanalytical data were determined using Win Nonlin.
EXPERIMENTAL READOUT: Bioavailability with respect to mexiletine

compound="Cc1cccc(C)c1OCC(C)NC(=O)[C@@H](N)CCC(N)=O.Cl (stereo partly shown) [Mexiletine glutamine amide]" result="near complete"
compound="Cc1cccc(C)c1OCC(C)NC(=O)c1cccnc1 (stereo not shown) [Mexiletine nicotinic acid amide]" result=negligible
compound="Cc1cccc(C)c1OCC(C)NC(=O)c1ccncc1 (stereo not shown) [Mexiletine isonicotinic acid amide]" result=negligible
compound="Cc1cccc(C)c1OCC(C)NC(=O)C(N)CCC(=O)O.Cl (mixture of isomers) [Mexiletine glutamic acid amide]" result="near complete"
